assay: method code SF, from Hansch, C. & Leo, A. (1987). Log P database [Dataset]. Pomona College Medicinal Chemistry Project.; settings: pH 7.4
Met means recorded logD is -0.3 or above; Not met means it is below -0.3.

Nc1nncs1 : Not met
O=c1[nH]c(=O)n(C2CCCO2)cc1F (stereo not drawn) : Met
CC(=O)OC[C@]12CCC(C)=C[C@H]1O[C@@H]1[C@H](O)[C@@H](OC(C)=O)[C@@]2(C)[C@]12CO2 : Met
Cc1c(N2CCOCC2)c(=O)n(-c2ccccc2)c(=O)n1C : Met
CO[C@H]1O[C@H](CO)[C@@H](O)[C@H](NC(=O)N(C)N=O)[C@H]1O : Not met
CC(CN1CC(=O)NC(=O)C1)N1CC(=O)NC(=O)C1 (stereo not drawn) : Not met
CN(C)/N=N/c1ccccc1 : Met
CSc1ccccc1/N=N/N(C)C : Met

* * *

assay: method code SF, from Hansch, C. & Leo, A. (1987). Log P database [Dataset]. Pomona College Medicinal Chemistry Project.
Documented logP across a set of compounds
Measured Parameter: logP

O=c1nc[nH]c(=O)[nH]1 : -1.87
CCCCC(=O)c1ccc[nH]1 : 2.42
COc1cc(C=O)ccc1OCCOC(=O)c1ccccc1Cl : 3.21
c1ccc2nc3ccccc3nc2c1 : 2.84

* * *

assay: method code SF, from Hansch, C. & Leo, A. (1987). Log P database [Dataset]. Pomona College Medicinal Chemistry Project.
Measured Parameter: logP

CCOC(=O)NC1=C(N2CC2)C(=O)C(NC(=O)OCC)=C(N2CC2)C1=O : 0.05
CCCNP(=O)(OC)Oc1cc(Cl)c(Cl)cc1Cl (configuration not stated) : 3.7
O=S(=O)(c1ccccc1)C(F)(F)F : 2.69
CC(N)=S : -0.26
CC1CCC(O)CC1 (configuration not stated) : 1.79
O=S1(=O)NC=Nc2ccc(Cl)cc21 : 1.07
Cc1csc(C=Cc2ccc([N+](=O)[O-])o2)n1 : 1.53

* * *

assay: method code SF, from Hansch, C. & Leo, A. (1987). Log P database [Dataset]. Pomona College Medicinal Chemistry Project.
Recorded logP values for a group of molecules are listed next.
Measured Parameter: logP

N#CN=[N+]([O-])c1cccc(C(F)(F)F)c1 : 2.52
CCOC(=O)CON=Cc1ccc(OCCOC(=O)CC)c(OC)c1 : 2.39
N#CN=[N+]([O-])c1cccc(Cl)c1 : 2.4
C=CC(=O)c1ccccc1 : 1.88
CC(=O)Nc1ccc2c(c1)[nH]c1ccccc12 : 3.02
CN1CCOCC1 : -0.33
O=C(CNC(=O)c1ccccc1)Oc1ccccc1 : 2.31
CNP(=O)(OC)Oc1ccccc1Cl (stereo unspecified) : 1.61
CCCCC1=Nc2ccc(Cl)cc2S(=O)(=O)N1 : 2.52
CN(N=Nc1ccc(C(N)=O)cc1)C(C)(C)C : 2.61
CSc1ccc(C=NN=C(N)NN)cc1 : 1.35

* * *

assay: method code SF, from Hansch, C. & Leo, A. (1987). Log P database [Dataset]. Pomona College Medicinal Chemistry Project.
# Lookup of reported logP keyed by entry
Measured Parameter: logP

NC(=O)/C=C/c1ccccc1 : 1.42
CC(=NNC(=S)N(C)C)c1cc(C)ccc1O : 2.26
c1ccc2[nH]c(CCCCCCc3nc4ccccc4[nH]3)nc2c1 : 1.66
CCC(C)NC(=O)C=C(c1ccc(Cl)cc1)C(C)C (stereo not given) : 4.03
c1cscn1 : 0.44

* * *

test: method code SF, from Hansch, C. & Leo, A. (1987). Log P database [Dataset]. Pomona College Medicinal Chemistry Project.; conditions: pH 7.0
Would you mind labelling by logD? At or over 2 is Condition met, under is Condition not met.

COc1cccc(S(C)(=O)=O)c1 : Condition not met
CCOc1cccc(NC(C)=O)c1 : Condition not met
CC(=O)Oc1ccc(C(C)=O)cc1 : Condition not met
O=Cc1cccc([N+](=O)[O-])c1 : Condition not met
CO[C@H]1[C@@H](O)[C@@H](C)O[C@H](O[C@H]2[C@H](Oc3cccc4c(O)c5c(=O)oc6ccc(C)c7c(=O)oc(c34)c5c67)O[C@H](C)[C@H](O)[C@@H]2O)[C@@H]1O : Condition not met
CN(C)c1ccc(S(N)(=O)=O)cc1 : Condition not met
CC(=O)c1ccc(C#N)cc1 : Condition not met
CN1CC(C)(C)C(=O)c2ccccc21 : Condition met
CC(=O)c1ccc(N(C)C)cc1 : Condition met
COC(=O)c1ccc(OC)cc1 : Condition met
CCOC(=O)c1cccc([N+](=O)[O-])c1 : Condition met
CCCCOC(=O)c1cccnc1 : Condition met
NC(=O)c1ccco1 : Condition not met
NC(=O)c1ccc(N)nc1 : Condition not met
CC(=O)Oc1ccc(C(N)=O)cc1 : Condition not met
O=CNc1cccc([N+](=O)[O-])c1 : Condition not met
COC(=O)c1ccc(C(=O)OC)cc1 : Condition met
FC(F)(F)c1ccc2cccnc2c1 : Condition met
NC(=O)c1cccnc1N : Condition not met
O=CNc1ccc(F)cc1 : Condition not met
CS(=O)(=O)c1ccc(Cl)cc1 : Condition not met
CS(=O)(=O)c1cccc([N+](=O)[O-])c1 : Condition not met
COc1cccc(C(C)=O)c1 : Condition not met
CCOC(=O)c1ccc([N+](=O)[O-])cc1 : Condition met
CCCOC(=O)c1cccnc1 : Condition not met

* * *

assay: method code SF, from Hansch, C. & Leo, A. (1987). Log P database [Dataset]. Pomona College Medicinal Chemistry Project.
Classification field: enter satisfied for logP values not below 2, not satisfied for values below it.

COc1ccc(/N=N/N(C)C(C)=O)cc1 : satisfied
CNP(=O)(OC)Oc1ccc(OC)cc1 (stereo not drawn) : not satisfied
CC(C)(C)[N+]([O-])=NC#N : not satisfied
NC(=O)c1ccccc1Br : not satisfied
COC(=O)[C@@]12OC[C@@]34[C@H](C[C@@H]5C(C)=C(O)C(=O)C[C@]5(C)[C@H]3C(O)C1O)OC(=O)C(OC(=O)C=C(C)C(C)C)[C@@H]42 (stereo partly drawn) : not satisfied
CCc1ccc2c(c1)N=C(C)NS2(=O)=O : not satisfied
CC(C)Cl : not satisfied
CC1=Nc2ccc(F)cc2S(=O)(=O)N1 : not satisfied
CN(C)C(=S)Nc1ccccc1 : not satisfied
COc1ccccc1C(=O)c1ccncc1 : not satisfied
CC(=S)Oc1ccccc1 : not satisfied
Cn1cnc2ccccc2c1=O : not satisfied
CCOP(=S)(OCC)SCS(=O)(=O)C(C)(C)C : satisfied
O=[N+]([O-])c1ccc(C=Cc2nccc(Cl)n2)o1 : not satisfied
O=C1C=CCCC1 : not satisfied
Nc1cccc([N+](=O)[O-])c1N : not satisfied
CN(c1ccccc1)S(C)(=O)=O : not satisfied
O=NN(CCCl)C(=O)NC1CS(=O)(=O)CS(=O)(=O)C1 : not satisfied
Cc1cccc(OC(=O)CNC(=O)c2ccccc2)c1 : satisfied
CC1(C)OC(=O)c2ccccc21 : not satisfied
Cc1ccc2[nH]c(CCCCCCc3nc4cc(C)ccc4[nH]3)nc2c1 : not satisfied
COC(=O)C[C@](O)(CCCC(C)(C)O)C(=O)OC1C(OC)=C[C@]23CCCN2CCc2cc4c(cc2[C@H]13)OCO4 (stereo partly drawn) : not satisfied
CN1C(=O)c2ccccc2C1=O : not satisfied
CC1=Nc2ccc(C(F)(F)F)cc2S(=O)(=O)N1 : not satisfied
FC(F)(F)Sc1ccccc1 : satisfied
CSCCC(=O)N(C)c1ccc(S(=O)(=O)N(C)C)cc1 : not satisfied
CCC(=Cc1ccccc1)[N+](=O)[O-] : satisfied
CCOC(N)=O : not satisfied
CC1=Nc2ccc(S(=O)(=O)N(C)C)cc2S(=O)(=O)N1 : not satisfied
OCCCc1nc2ccccc2[nH]1 : not satisfied
O=C(O)CONC(=O)c1ccccc1 : not satisfied
CN(C)c1ccc([N+]([O-])=NC#N)cc1 : satisfied
CCCCCCCOC(=O)c1ccc(O)cc1 : satisfied
C1=CCOC1 : not satisfied
O=C(Nc1ccccc1)Oc1ccccc1 : satisfied
CCCCNP(=O)(OC)Oc1cc(Cl)c(Cl)cc1Cl (stereo not drawn) : satisfied
FS(F)(F)(F)(F)c1ccccc1 : satisfied
Cc1c(Cl)c(Cl)c(Cl)c(Cl)c1Cl : satisfied
CCCCCCCCOC(=O)c1cccc(C(=O)OCCCCCCCC)c1 : satisfied
O=S(=O)(Nc1cn[nH]c1)c1ccccc1 : not satisfied
Nc1cccc2nc3ccccc3cc12 : satisfied
C[C@@H](O)c1ccccc1 : not satisfied
CCOC(=O)C(=O)OCC : not satisfied
Nc1ccccc1S : not satisfied
c1nnn[nH]1 : not satisfied

* * *

experiment: method code SF, from Hansch, C. & Leo, A. (1987). Log P database [Dataset]. Pomona College Medicinal Chemistry Project.
Label Condition met when logP >= 3; otherwise Condition not met.

CC(=O)OC1CCCC(NC(=O)N(CCF)N=O)C1 (stereo unspecified) : Condition not met
CC=CC1=Nc2cc(Cl)ccc2S(=O)(=O)N1 : Condition not met
O=C(Cc1ccccc1)Nc1ccc(Cl)c(Cl)c1 : Condition met
O=C(/C=C/c1ccccc1)N1CCCCC1 : Condition not met
CCCCCCC1OC(=O)c2cc(N)ccc21 (stereo unspecified) : Condition met
CCOP(=S)(OCC)SCS(=O)C(C)(C)C (stereo unspecified) : Condition not met
CCC(C)NC(=O)/C(Br)=C\c1ccccc1 (stereo unspecified) : Condition met
Cc1cccc2cccnc12 : Condition not met
O=C(c1ccccc1)C(F)(F)F : Condition not met
OCc1ccoc1 : Condition not met
Nc1cccc(Cl)c1 : Condition not met
O=[N+]([O-])c1ccc2cccnc2c1 : Condition not met
Clc1ccc2[nH]c(CCCCc3nc4cc(Cl)ccc4[nH]3)nc2c1 : Condition not met
CC[N+](=O)[O-] : Condition not met
CCOC(=O)C(=Cc1ccc(OC)cc1)C(C)=O : Condition not met
FC(F)(F)C(F)(F)c1ccccc1 : Condition met
O=c1nccc[nH]1 : Condition not met
CCCCC : Condition met
CCCCN(C)N=Nc1cn([C@@H]2O[C@H](CO)[C@@H](O)[C@H]2O)c(=O)n(C)c1=O : Condition not met
O=C(COc1ccccc1)Nc1ccccc1 : Condition not met
O=C(NC1CC1)c1cc(N2CC2)c([N+](=O)[O-])cc1[N+](=O)[O-] : Condition not met
Cc1ccc2c(ccc[n+]2[O-])c1 : Condition not met
O=C(Nc1ccc(Cl)c(Cl)c1)C(F)(F)F : Condition met
CN(C)Cc1ccco1 : Condition not met
CNP(=O)(OC)Oc1ccc(C(C)(C)C)cc1Cl (stereo unspecified) : Condition met
